Data provenance is ChEMBL document CHEMBL3804761.

Test system: U-251
Experiment: Growth inhibition of human U251 cells incubated for 48 hrs by sulforhodamine B assay
Format: functional
Details: U-251, 48 h
parameter: LC50 (concentration giving 50% net cell kill)

>>> result("CC(C)[C@@]12C[C@@H](NC(=O)CO)[C@@](C)(O1)[C@@H]1CC[C@@H](C)[C@H]1[C@@H]2OC(=O)/C=C/c1ccccc1")
"> 50.1 µM"
>>> result("C/C(=C\\C(=O)O[C@H]1[C@@H]2[C@H](C)CC[C@H]2[C@]2(C)O[C@@]1(C(C)C)C[C@H]2NC(=O)CO)c1ccccc1")
"> 100 µM"

Data request, read-out LC50 (concentration giving 50% net cell kill), for CC(C)[C@@]12C[C@@H](NC(=O)CO)[C@@](C)(O1)[C@@H]1CC[C@@H](C)[C@H]1[C@@H]2OC(=O)/C=C/C1CCCCC1 > 44.7 µM

Data request, read-out LC50 (concentration giving 50% net cell kill), for CC(C)[C@@]12C[C@@H](NC(=O)CO)[C@@](C)(O1)[C@@H]1CC[C@@H](C)[C@H]1[C@@H]2OC(=O)c1ccc2ccccc2c1 56.2 µM

---

System: MCF7
Assay: Growth inhibition of human MCF7 cells assessed as cell growth at 10 uM incubated for 48 hrs by sulforhodamine B assay relative to control
Type: functional
Conditions: MCF7, 48 h, read-out: Activity
parameter: growth at 10 µM

Worked cases, answers included:
>>> result("CC(C)[C@@]12C[C@@H](NC(=O)CO)[C@@](C)(O1)[C@@H]1CC[C@@H](C)[C@H]1[C@@H]2OC(=O)/C=C/c1ccccc1")
"94.4%"
>>> result("CC(C)[C@@]12C[C@@H](NC(=O)CO)[C@@](C)(O1)[C@@H]1CC[C@@H](C)[C@H]1[C@@H]2OC(=O)c1ccc2ccccc2c1")
"75.4%"
>>> result("CC(C)[C@@]12C[C@@H](NC(=O)CF)[C@@](C)(O1)[C@@H]1CC[C@@H](C)[C@H]1[C@@H]2OC(=O)/C=C/c1ccccc1")
"106%"

Data request, read-out growth at 10 µM, for C/C(=C\C(=O)O[C@H]1[C@@H]2[C@H](C)CC[C@H]2[C@]2(C)O[C@@]1(C(C)C)C[C@H]2NC(=O)CO)c1ccccc1 89.7%

Data request, read-out growth at 10 µM, for CC(C)[C@@]12C[C@@H](NC(=O)CO)[C@@](C)(O1)[C@@H]1CC[C@@H](C)[C@H]1[C@@H]2OC(=O)/C=C/C1CCCCC1 94%

---

Assay: Growth inhibition of human MOLT4 cells incubated for 48 hrs by sulforhodamine B assay
Type: functional
Conditions: MOLT-4, 48 h
compounds and their reported GI50
Output spec: scalar in µM, unitless text.

Worked cases, answers included:
>>> result_number("C/C(=C\\C(=O)O[C@H]1[C@@H]2[C@H](C)CC[C@H]2[C@]2(C)O[C@@]1(C(C)C)C[C@H]2NC(=O)CO)c1ccccc1")
25.7
>>> result_number("CC(C)[C@@]12C[C@@H](NC(=O)CO)[C@@](C)(O1)[C@@H]1CC[C@@H](C)[C@H]1[C@@H]2OC(=O)/C=C/c1ccccc1")
15.8

Now for the compound whose GI50 we want.
Data request, read-out GI50, for CC(C)[C@@]12C[C@@H](NC(=O)CO)[C@@](C)(O1)[C@@H]1CC[C@@H](C)[C@H]1[C@@H]2OC(=O)c1ccc2ccccc2c1 18.6
